Every entry's value here was drawn from paper PMC7395068.

System: HepaRG spheroids
Assay: Combined HCI (HCS) and cellular ATP 3D assay in HepaRG spheroids
Details: Homo sapiens, HepaRG, read-out: HCS endpoint AC50
Consider the following molecules and their measured AC50 readings.
# output: bare number, implied unit µM

molecule="CCCCc1oc2ccccc2c1C(=O)c1cc(I)c(OCCN(CC)CC)c(I)c1 [amiodarone]" propertymeasured=AC50 testresult=13.1

QUERY: Provide only the value of recorded AC50 for Nc1c2c(nc3ccccc13)CCCC2 [tacrine, reference compound]
RESULT: 65.6

QUERY: Provide only the value of recorded AC50 for CN(C)CCC(c1ccc(Cl)cc1)c1ccccn1 (stereo not drawn) [chlorpheniramine]
RESULT: 119
